Tested on: K-562 leukemia
Assay Notes: NCI tumour cell line growth inhibition, 48 h
Where a SMILES comes first, the peptide text is derived from it. Bridges are numbered along the chain shown (N, C = ends). [ ]: non-standard residue; d: D form. The star is where a group is joined. ξ: configuration not given here. X26 = O=C(/C=C/C=C/C=C/C=C/C=C/C(=O)*)NC1=C(O)CCC1=O; NMeA = CN[C@@H](C)C(=O)O; ξF = NC(Cc1ccccc1)C(=O)O; ξA = CC(N)C(=O)O
Quantity: TGI

compound=C=CCNC(=S)N=Nc1c(O)[nH]c2ccc([N+](=O)[O-])cc12 experimental_system="K-562 leukemia" observed_measurement="> 100 µM"
compound=ClC(Cl)=C1C(=C(Cl)Cl)C(Cl)(Cl)C1(Cl)Cl experimental_system="K-562 leukemia" observed_measurement="5.62 µM"
compound=Cc1cc2c([N+](=O)[O-])cc3c(c2o1)C(=O)C=CC3=O experimental_system="K-562 leukemia" observed_measurement="> 100 µM"
compound=CCCC/C(=C\C1=C(C)C(=O)C(OC)=C(OC)C1=O)C(=O)O experimental_system="K-562 leukemia" observed_measurement="> 100 µM"
compound="CCN1CCCC(NCc2c3ccccc3c(CNC3CCCN(CC)C3)c3ccccc23)C1 (centres undefined)" experimental_system="K-562 leukemia" observed_measurement="42.6 µM"
compound="C=C1c2cc3c(cc2CC12Cc1cc4c(cc1C2=O)CCC4)CCC3 (centres undefined)" experimental_system="K-562 leukemia" observed_measurement="> 100 µM"
compound=COc1ccc(-c2ccc3c(N4CCOC[C@@H]4C)nc(N4CCOC[C@@H]4C)nc3n2)cc1CO experimental_system="K-562 leukemia" observed_measurement="> 100 µM"
compound=Cc1ccc(OCCn2cc(Nc3ccccc3)c(=O)n(CCOc3ccc(C)cc3)c2=O)cc1 experimental_system="K-562 leukemia" observed_measurement="> 100 µM"
compound=O=C(O)C(SC1=NNC2(C(=O)N1)c1ccccc1-c1ccccc12)SC1=NNC2(C(=O)N1)c1ccccc1-c1ccccc12 experimental_system="K-562 leukemia" observed_measurement="> 10 µM"
compound=O=c1[nH]cnc2c1ncn2[C@@H]1C[C@@H]1CO experimental_system="K-562 leukemia" observed_measurement="> 100 µM"
compound="CCC(C)(O)c1cnc(CC(C)C)c(=O)n1O (centres undefined)" experimental_system="K-562 leukemia" observed_measurement="47.8 µM"
compound=CCCc1cc(=O)n2c(C(=O)Nc3ccc(Cl)cc3C)c(C(=O)Nc3ccc(F)cc3)sc2n1 experimental_system="K-562 leukemia" observed_measurement="20.3 µM"
compound="Cc1[nH]c2ccccc2c1C1Cc2ccccc2N1C(=O)C#Cc1ccc([N+](=O)[O-])cc1 (centres undefined)" experimental_system="K-562 leukemia" observed_measurement="> 100 µM"
compound="O=c1ccn(C2OC(CO)C(P(=O)(O)O)C2O)c(=O)[nH]1 (centres undefined)" experimental_system="K-562 leukemia" observed_measurement="> 100 µM"
compound=O=C(/C=C/c1ccccc1)c1ccccc1 experimental_system="K-562 leukemia" observed_measurement="> 7.51 µM"
compound=CCNC(=O)/C(=C/c1ccc(OC)cc1)c1cc(OC)c(OC)c(OC)c1 experimental_system="K-562 leukemia" observed_measurement="> 100 µM"
compound=C=CC(=O)N1CN(C(=O)C=C)CN(C(=O)C=C)C1 experimental_system="K-562 leukemia" observed_measurement="9.83 µM"
compound="CC1NC(=O)[C@H](C)N(C)C(=O)[C@@H]2CCCN2C(=O)[C@@H](NC(=O)C(Cc2ccccc2)NC(=O)/C=C/C=C/C=C/C=C/C=C/C(=O)NC2=C(O)CCC2=O)COC(=O)[C@@H]2CCCN2C1=O (some centres undefined) (X26-[ξF]SP[NMeA][ξA]P; ester 2-C)" experimental_system="K-562 leukemia" observed_measurement="> 100 µM"
compound=Cc1cc(N/N=C/c2ccccn2)nc2ccccc12 experimental_system="K-562 leukemia" observed_measurement="7.55 µM"
compound=CN(C)CCNCCN experimental_system="K-562 leukemia" observed_measurement="> 100 µM"
compound=COc1cc2nc(-c3cccs3)oc(=O)c2cc1OC experimental_system="K-562 leukemia" observed_measurement="> 100 µM"
compound="O=C1Sc2ccccc2C(=O)N2CSCC12 (centres undefined)" experimental_system="K-562 leukemia" observed_measurement="> 100 µM"
compound="COC(=O)C(=O)C(C(C)=O)C(=O)NCc1ccc(OC)c(OC)c1 (centres undefined)" experimental_system="K-562 leukemia" observed_measurement="> 100 µM"
compound="CCOC(=O)NC(=O)c1cn(C(CC)COC(=O)NCCCCCCNC(=O)OCC(CC)n2cc(C(=O)NC(=O)OCC)c(=O)[nH]c2=O)c(=O)[nH]c1=O (centres undefined)" experimental_system="K-562 leukemia" observed_measurement="> 100 µM"
compound="CC(=O)OCC1OC(n2cc(I)c(=O)[nH]c2=O)C(OC(C)=O)C(OC(C)=O)C1OC(C)=O (centres undefined)" experimental_system="K-562 leukemia" observed_measurement="> 100 µM"
compound=COc1cc2c(Nc3cc(Cl)c(OC)c(Cl)c3)c(C#N)cnc2cc1OCCCN1CCN(C)CC1 experimental_system="K-562 leukemia" observed_measurement="8.41 µM"
compound=COc1ccc(/C(C)=C(\c2ccc(OCCN3CCCCCC3)cc2)c2ccc(OC(=O)C3CCCCC3)cc2)cc1 experimental_system="K-562 leukemia" observed_measurement="6.14 µM"
compound=N#CC(=Nc1ccccc1N(C(=O)c1ccccc1)C(=O)c1ccccc1)c1ccccc1 experimental_system="K-562 leukemia" observed_measurement="> 60.9 µM"
compound=S=c1[nH]c2ccc(Br)cc2c(=S)s1 experimental_system="K-562 leukemia" observed_measurement="> 100 µM"
compound=COc1cc2c(/C=N\N=C(N)N)c[nH]c2cc1C experimental_system="K-562 leukemia" observed_measurement="30.8 µM"
compound=NCCCN1CCN(CCCNc2ccc3nnn4c5ccccc5c(=O)c2c34)CC1 experimental_system="K-562 leukemia" observed_measurement="> 100 µM"
compound=c1coc(-c2c3ccc(=[N+]4CCCCC4)cc-3oc3cc(N4CCCCC4)ccc23)c1 experimental_system="K-562 leukemia" observed_measurement="> 100 µM"
compound=NCCNCC1CCNCC1 experimental_system="K-562 leukemia" observed_measurement="> 100 µM"
compound=Cc1cc(Nc2nc(-c3cn(-c4ccc(Cl)cc4)nn3)nc3ccccc23)n[nH]1 experimental_system="K-562 leukemia" observed_measurement="> 50 µM"

---

Test system: OVCAR-3 ovarian
Assay Notes: NCI tumour cell line growth inhibition, 48 h
Documented TGI across a set of compounds
Quantity: TGI

compound="O=[N+]([O-])c1cccc(C2=NOC(C3CCCCC3)C2)c1 (stereo unspecified)" observed_measurement="> 100 µM"
compound=Nc1ccc(-c2nc3ccccc3s2)cc1C(F)(F)F observed_measurement="30.2 µM"
compound=NNC1=N/C(=C\c2ccco2)C(Cl)=N1 observed_measurement="> 100 µM"
compound=COc1ccc(-c2c3c([nH]c(=S)c2C#N)CC(C)(C)CC3=O)cc1 observed_measurement="> 100 µM"
compound=Cn1cc(-c2csc(-c3cn(CCCCN4CCCCC4)c4ccccc34)n2)c2cccnc21 observed_measurement="3.13 µM"
compound=O=C(c1ccco1)c1c(C(F)(F)F)n([O-])c2ccc(C(F)(F)F)cc2[n+]1=O observed_measurement="0.835 µM"
compound=O=C(O)c1cc(-c2ccc3c(O)c(O)ccc3c2)ccc1O observed_measurement="> 75 µM"
compound=CCOC(=O)NC(=O)c1cn(C2CCCCC2)c(=O)[nH]c1=O observed_measurement="> 100 µM"
compound=CCc1ccc2c(c1)C(=O)c1c-2n(CCCN=[N+]=[N-])c(=O)c2cc([N+](=O)[O-])ccc12 observed_measurement="> 50 µM"
compound=Nc1nc(-c2ccc(Cl)c([N+](=O)[O-])c2)cs1 observed_measurement="> 100 µM"
compound="CNc1ncnc2c1cnn2COCC(O)CO (stereo unspecified)" observed_measurement="> 100 µM"

---

Test system: MCF7 breast
Assay Notes: NCI tumour cell line growth inhibition, 48 h
Documented TGI across a set of molecules
Quantity: TGI

molecule=O=C(O)C(SC1=NNC2(C(=O)N1)c1ccccc1-c1ccccc12)SC1=NNC2(C(=O)N1)c1ccccc1-c1ccccc12 quantity=TGI observed_measurement="> 10 µM"
molecule=O=C(Oc1cc(=O)c(OC(=O)c2ccccc2)co1)c1ccccc1 quantity=TGI observed_measurement="> 100 µM"
molecule=Clc1ccc(CSCCc2ccncc2)cc1Cl quantity=TGI observed_measurement="35.7 µM"
molecule="CC1(C)C2CC(=O)C1(C)C(O)C2Br (configuration not stated)" quantity=TGI observed_measurement="> 100 µM"
molecule=Nc1cc(Br)c(-c2nnc(CCC(=O)c3nc4ccccc4[nH]3)o2)c(Br)c1 quantity=TGI observed_measurement="> 100 µM"
molecule=CN(Cc1ccccc1)c1cc(=O)n(C)c(=O)[nH]1 quantity=TGI observed_measurement="> 100 µM"
molecule=c1ccc2c(c1)c1c(n2CCOCCN2CCOCC2)CCCC1 quantity=TGI observed_measurement="> 100 µM"
molecule=COc1ccc(/C=C2\C[C@H]3[C@@H]4CCC5=C/C(=N/O)CC[C@]5(C)[C@H]4CC[C@]3(C)\C2=N\O)cc1OC quantity=TGI observed_measurement="> 100 µM"
molecule=O=C(O)c1cc(-c2ccc3c(O)c(O)ccc3c2)ccc1O quantity=TGI observed_measurement="25.1 µM"
molecule=c1csc(-c2ccc(-c3cccs3)c3nsnc23)c1 quantity=TGI observed_measurement="> 100 µM"
molecule=C=CC(=O)N1CN(C(=O)C=C)CN(C(=O)C=C)C1 quantity=TGI observed_measurement="15.5 µM"
molecule=Cc1cc(Nc2nc(-c3cn(-c4ccc(Cl)cc4)nn3)nc3ccccc23)n[nH]1 quantity=TGI observed_measurement="> 50 µM"
molecule=COc1cc(-c2cc(=O)c3cc4c(=O)cc(-c5cc(OC)c(OC)c(OC)c5)oc4cc3o2)cc(OC)c1OC quantity=TGI observed_measurement="> 100 µM"
molecule=C[C@]12CC[C@@H]3c4ccc(O)cc4CC[C@H]3[C@@H]1C/C(=C\c1ccncc1)[C@@H]2O quantity=TGI observed_measurement="30.2 µM"
molecule=O=[N+]([O-])c1ccc(/C=C/c2cc(-c3ccccc3)nc3ccc4ccccc4c23)cc1 quantity=TGI observed_measurement="> 100 µM"
molecule=Cc1ccc(CC[P+](=O)CCc2ccc(C)nc2)cn1 quantity=TGI observed_measurement="> 100 µM"
molecule=N/C(=N\S(=O)(=O)c1c(C(F)(F)F)cccc1C(F)(F)F)Nc1ccc(Cl)cc1 quantity=TGI observed_measurement="> 100 µM"
molecule=ClCCN(CCCl)c1ccc(CNc2ccccc2)cc1 quantity=TGI observed_measurement="> 100 µM"
molecule=Cc1ccc([N+](=O)[O-])cc1N=NC(=O)NNc1cc([N+](=O)[O-])ccc1C quantity=TGI observed_measurement="67.3 µM"
molecule=Nc1cc2c(cc1Br)[nH]c(=O)c1ccccc12 quantity=TGI observed_measurement="11.4 µM"
molecule="COC(=O)C1C(O)C(C(=O)OC)C(C)N(C)C1C (configuration not stated)" quantity=TGI observed_measurement="> 100 µM"
molecule=Cc1cc(N/N=C/c2ccccn2)nc2ccccc12 quantity=TGI observed_measurement="8.94 µM"
